Measured values drawn from PubChem BioAssay (NCI) for this set.

Tested on: T-47D breast
ASSAY PROTOCOL: NCI-60 one-dose screen, 48 h
CONDITIONS: 10 µM unless noted
Procedure: Growth inhibition of the T-47D human tumor cell line is measured as a screen for anti-cancer activity. Cells are grown in 96 well plates and exposed to the test compound for 48 hours. Compounds are tested at a single concentration, which is 10^-5 M for most compounds. The reported endpoint is percent growth (GI% or GIPRCNT), where numbers from 0 - 100% represent growth inhibition, and numbers from -100% - 0 represent cell death. For example, a value of 40 represents 60% growth inhibition. […]
This is part of a sample that, as a whole, favours compounds with a hit. Of some 83,000 tested, about 20% had one in any assay. Calls of active or inactive are those of the source. The calls were made as follows: active = growth percent below 10; inactive = the rest.
Bench note: report the call from Y (active), N (inactive)

Known results for compounds:
Fc1cc2[nH]ncc2c2c3c(c(-c4cn[nH]c4)nc12)CCCC3 : Y
Cn1cc(-c2noc(-c3cn(C)c4ncc(F)cc34)n2)c2cc(Br)ccc21 : N
COc1ccc(-c2cc(-c3ccccc3)nc(NCCNc3ccnc4cc(Cl)ccc34)n2)cc1 : Y
O=C(N/N=C/c1ccc([N+](=O)[O-])cc1)c1ccc(Br)o1 : N
COc1ccc2c3ccnc(C(F)(F)F)c3n(CCCCN)c2c1 : N
O=C(O)c1cc([N+](=O)[O-])ccc1Br : N
C=C(C)[C@@H]1CC[C@]2(C(N)=O)CC[C@]3(C)[C@H](CC[C@@H]4[C@@]5(C)CC[C@H](O)C(C)(C)[C@@H]5CC[C@]43C)[C@@H]12 : Y
N#C/C(C(=O)c1ccccc1)=C1/C(=O)Nc2ccccc21 : N

Hi team, can someone confirm the assay call for C/C=C/C1OC23CCCCC2C(C#N)(C(=N)O3)C1(C#N)C#N (centres undefined) ?
N

Hi team, can someone confirm the assay call for `CC1=CC[C@@H]2C(C)(C)[C@@H](O)CC[C@@]2(C)[C@@H]1COc1ccc2ccc(=O)oc2c1` ?
Y

====

Test system: IGROV1 ovarian
ASSAY PROTOCOL: NCI-60 one-dose screen, 48 h
CONDITIONS: 10 µM unless noted
Procedure: Growth inhibition of the IGROV1 human tumor cell line is measured as a screen for anti-cancer activity. Cells are grown in 96 well plates and exposed to the test compound for 48 hours. Compounds are tested at a single concentration, which is 10^-5 M for most compounds. The reported endpoint is percent growth (GI% or GIPRCNT), where numbers from 0 - 100% represent growth inhibition, and numbers from -100% - 0 represent cell death. For example, a value of 40 represents 60% growth inhibition. […]
This is part of a sample that, as a whole, favours compounds with a hit. Of some 83,000 tested, about 20% had one in any assay. Activity calls are given as the source filed them. Rule for the calls: active = growth percent below 10; inactive = the rest.
Bench note: report the call from active, inactive

Known results for compounds:
COc1ccc(-c2cc(-c3ccc(OC)c(OC)c3)nc(SCCCCCC(=O)NO)n2)cc1 : inactive
CCn1cc(-c2cc(-c3ccc(Cl)cc3)nc(N)n2)c(-c2ccc(Br)cc2)n1 : inactive
CCOC(=O)c1cnc2ccc(Br)cc2c1Nc1cccc(S(N)(=O)=O)c1 : inactive

Hi team, can someone confirm the assay call for `CC(C)C1=NOC(=O)C1=Cc1cn(-c2ccccc2)nc1-c1ccccc1` ?
inactive

Hi team, can someone confirm the assay call for `CC1(C)CC[C@]2(C(=O)O)CC[C@]3(C)[C@H](CC[C@@H]4[C@@]5(C)CCC(=O)C(C)(C)[C@@H]5CC[C@]43C)[C@H]2[C@H]1OC(=O)C(F)(F)F` ?
active

Hi team, can someone confirm the assay call for NC(=O)CC1C=CCC1 (stereo unspecified) ?
inactive

Hi team, can someone confirm the assay call for `Cc1ccc(-c2cc(-c3ccc(C)cc3)nc(NCCNc3ccnc4cc(Cl)ccc34)n2)cc1` ?
active

Hi team, can someone confirm the assay call for `O=C(CCN1CCCCC1)c1ccc(Cl)cc1` ?
inactive

Hi team, can someone confirm the assay call for CC[C@@](C)(NC(=O)[C@H](C)NC(=O)CCNC(=O)C(C)(C)NC(=O)[C@H](C)NC(=O)[C@@H]1CCCN1C(=O)[C@@](C)(CC)NC(=O)[C@H](Cc1ccccc1)NC(=O)C1CCCN1C(=O)C(C)(C)NC(=O)C1CCCN1C(=O)C(C)(C)NC(C)=O)C(=O)NCCC(=O)N[C@@H](CC(C)C)C(=O)NC(C)(C)C(=O)NCCC(=O)N[C@@H](CC(C)C)C(=O)NC(C)(C)C(=O)NC(C)(C)C(=O)N[C@@H](CC(C)C)C(=O)NCCC(=O)NCO (stereo partly specified) ?
active

Hi team, can someone confirm the assay call for `Cc1ccc(NC(=S)/N=c2/n(-c3ccccc3)nc3n2CCN3C2=NCCN2)cc1` ?
inactive

Hi team, can someone confirm the assay call for `O=C(Nc1ccc(F)cc1)c1ccccc1` ?
inactive

Hi team, can someone confirm the assay call for `C=C(CC(=O)OC)C(C)=O` ?
inactive

Hi team, can someone confirm the assay call for `C[C@H]1[C@H](C)CC[C@]2(C(=O)O)CC[C@]3(C)C(=CC[C@@H]4[C@@]5(C)C/C(=C/c6cccnc6)[C@H](O)C(C)(C)[C@@H]5CC[C@]43C)[C@H]12` ?
active

Hi team, can someone confirm the assay call for `C[C@]12CCc3c(ccc4cc(O)ccc34)[C@@H]1CC[C@H]2O` ?
inactive
